TGI: recorded values
tested on: NCI-H226 lung; assay: NCI tumour cell line growth inhibition, 48 h

• O=C1CN2CCN(CC2)CC(=O)Nc2ccc(cc2)S(=O)(=O)c2ccc(cc2)NC(=O)CN2CCN(CC2)CC(=O)Nc2ccc(cc2)S(=O)(=O)c2ccc(cc2)N1 = > 100 µM

**Q:** Give me measured TGI, please, for this molecule: COC(=O)C1=C(C(=O)OC)C2CCC1CC2=O (centres undefined)
**A:** > 100 µM

**Q:** Write down TGI measured for item COC(=O)C(Cc1cc(OC)c(OC)c(OC)c1)(NC(=O)c1ccccc1)P(=O)(OC)OC (centres undefined)
**A:** > 100 µM

**Q:** Quote TGI reported for Cc1csc(CP(=O)(OC(C)C)OC(C)C)n1 please.
**A:** > 100 µM

**Q:** Return TGI for the following molecule: Cc1cccc(C)c1NC(=O)/C(CC(=O)CC(c1ccccc1)c1c(O)c2ccccc2oc1=O)=N/O (centres undefined)
**A:** > 100 µM

**Q:** # return recorded TGI for entry COc1ccc(/C=C2\NC(=S)N(CN3CCOCC3)C2=O)cc1
**A:** > 100 µM
